Test system: CAL-148
Conditions: 72 h
Response field label takes Satisfied when EC50, CellTox Green is strictly below 200 nM and Not satisfied in all other cases.

{"compound": "CC(C)n1nc(-c2ccc3oc(N)nc3c2)c2c(N)ncnc21 [INK128]", "assignedClass": "Satisfied"}
{"compound": "COc1cc2c(Oc3ccc(NC(=O)C4(C(=O)Nc5ccc(F)cc5)CC4)cc3F)ccnc2cc1OCCCN1CCOCC1 [Foretinib]", "assignedClass": "Not satisfied"}
{"compound": "CC(C)NC[C@@H](C(=O)N1CCN(c2ncnc3c2[C@H](C)C[C@H]3O)CC1)c1ccc(Cl)cc1 [GDC-0068]", "assignedClass": "Not satisfied"}
{"compound": "Cc1c(N)nc([C@H](CC(N)=O)NC[C@H](N)C(N)=O)nc1C(=O)N[C@H](C(=O)N[C@H](C)[C@@H](O)[C@H](C)C(=O)N[C@H](C(=O)NCCc1nc(-c2nc(C(=O)NCCC[S+](C)C)cs2)cs1)[C@@H](C)O)[C@@H](OC1OC(CO)C(O)C(O)C1OC1OC(CO)C(O)C(OC(N)=O)C1O)c1cnc[nH]1 (stereo not given in full) [Bleomycin]", "assignedClass": "Not satisfied"}
{"compound": "NC1(c2ccc(-c3nc4ccn5c(=O)[nH]nc5c4cc3-c3ccccc3)cc2)CCC1 [MK-2206]", "assignedClass": "Not satisfied"}

###

Tested on: HCC1599
Experiment: normalised response (% of control), CellTiter-Glo; higher = more viable cells (100 = DMSO, 0 = benzethonium chloride kill control)
Settings: incubation time: 72 h

{"compound": "CN1CCc2c(c3ccccc3n2Cc2ccc(C(=O)NO)cc2)C1 [Tubastatin A] (1000 nM)", "normalised response": "104%"}
{"compound": "Cn1cc(C[C@@H](N)C(=O)O)c2ccccc21 [1-methyl-D-tryptophan] (5 nM)", "normalised response": "107%"}
{"compound": "CC(C)NC[C@@H](C(=O)N1CCN(c2ncnc3c2[C@H](C)C[C@H]3O)CC1)c1ccc(Cl)cc1 [GDC-0068] (1000 nM)", "normalised response": "103%"}
{"compound": "Cn1nnc2c(C(N)=O)ncn2c1=O [Temozolomide] (1 nM)", "normalised response": "90%"}
{"compound": "CC(C)(C)Cn1c(N)nc2ccc(-c3[nH]c(C(C)(C)C)nc3-c3ccc(F)cc3)nc21 (1 nM)", "normalised response": "104%"}
{"compound": "O=C(O)CC[C@H]1CC[C@@](c2cc(F)ccc2F)(S(=O)(=O)c2ccc(Cl)cc2)CC1 [MK-0752] (1 nM)", "normalised response": "97.5%"}
{"compound": "CC[C@H](CC#N)OC(=O)N[C@@H](C)c1cccc(NC(=O)Nc2ccc(-c3cnco3)c(OC)c2)c1 [AVN944] (1 nM)", "normalised response": "90.3%"}
{"compound": "NC(=O)NO [Hydroxyurea] (10 nM)", "normalised response": "101%"}
{"compound": "COc1cc2c(Oc3ccc(NC(=O)C4(C(=O)Nc5ccc(F)cc5)CC4)cc3F)ccnc2cc1OCCCN1CCOCC1 [Foretinib] (0.1 nM)", "normalised response": "93.4%"}
{"compound": "COc1cc2c(N3CCN(C(=O)Nc4ccc(OC(C)C)cc4)CC3)ncnc2cc1OCCCN1CCCCC1 [Tandutinib] (0.1 nM)", "normalised response": "113%"}
{"compound": "C[C@@H](C(=O)O)c1ccc(-c2ccccc2)c(F)c1 [Tarenflurbil] (1000 nM)", "normalised response": "106%"}
{"compound": "C[C@@H]1C[C@H]2[C@@H]3CCC4=CC(=O)C=C[C@]4(C)[C@@]3(F)[C@@H](O)C[C@]2(C)[C@@]1(O)C(=O)CO [Dexamethasone] (1000 nM)", "normalised response": "97.8%"}
{"compound": "C[C@@H](C(=O)O)c1ccc(-c2ccccc2)c(F)c1 [Tarenflurbil] (1 nM)", "normalised response": "113%"}
{"compound": "CC(C)C(=O)Nc1ccc([N+](=O)[O-])c(C(F)(F)F)c1 [Flutamide] (1000 nM)", "normalised response": "111%"}
{"compound": "O=NN(CCCl)C(=O)NC1CCCCC1 [Lomustine] (1 nM)", "normalised response": "105%"}
{"compound": "COc1cc2c(N3CCN(C(=O)Nc4ccc(OC(C)C)cc4)CC3)ncnc2cc1OCCCN1CCCCC1 [Tandutinib] (1 nM)", "normalised response": "90.9%"}

###

System: HCC1599
Assay: normalised response (% of control), CellTiter-Glo; higher = more viable cells (100 = DMSO, 0 = benzethonium chloride kill control)
Settings: incubation time: 72 h

{"compound": "O=C(O)CC[C@H]1CC[C@@](c2cc(F)ccc2F)(S(=O)(=O)c2ccc(Cl)cc2)CC1 [MK-0752] (1000 nM)", "testedOn": "HCC1599", "unitDescriptor": "%", "normalised response": 89}
{"compound": "CN1CCc2c(c3ccccc3n2Cc2ccc(C(=O)NO)cc2)C1 [Tubastatin A] (10000 nM)", "testedOn": "HCC1599", "unitDescriptor": "%", "normalised response": 85.3}
{"compound": "CO[C@H](C(=O)[C@@H](O)[C@@H](C)O)[C@@H]1Cc2cc3cc(O[C@H]4C[C@@H](O[C@@H]5C[C@@H](O)[C@H](O)[C@@H](C)O5)[C@H](O)[C@@H](C)O4)c(C)c(O)c3c(O)c2C(=O)[C@H]1O[C@H]1C[C@@H](O[C@@H]2C[C@@H](O)[C@@H](O[C@@H]3C[C@](C)(O)[C@H](O)[C@@H](C)O3)[C@@H](C)O2)[C@H](O)[C@@H](C)O1 [Plicamycin] (10000 nM)", "testedOn": "HCC1599", "unitDescriptor": "%", "normalised response": 4.89}
{"compound": "C[C@@H](C(=O)O)c1ccc(-c2ccccc2)c(F)c1 [Tarenflurbil] (10000 nM)", "testedOn": "HCC1599", "unitDescriptor": "%", "normalised response": 92.4}
{"compound": "NC(=O)c1cccc2cn(-c3ccc([C@@H]4CCCNC4)cc3)nc12 [MK-4827] (10000 nM)", "testedOn": "HCC1599", "unitDescriptor": "%", "normalised response": 91.4}
{"compound": "O=C(c1cc(Cc2n[nH]c(=O)c3ccccc23)ccc1F)N1CCN(C(=O)C2CC2)CC1 [Olaparib] (10000 nM)", "testedOn": "HCC1599", "unitDescriptor": "%", "normalised response": 95.3}

###

# maps each entry to its normalised response
Test system: MDA-MB-436
Experiment: normalised response (% of control), CellTiter-Glo; higher = more viable cells (100 = DMSO, 0 = benzethonium chloride kill control)
Settings: incubation time: 72 h

{"compound": "CCc1cnn2c(NCc3ccc[n+]([O-])c3)cc(N3CCCC[C@H]3CCO)nc12 [Dinaciclib] (1 nM)", "normalised response (%)": 98.5}
{"compound": "CO[C@H]1C[C@@H]2CC[C@@H](C)[C@@](O)(O2)C(=O)C(=O)N2CCCC[C@H]2C(=O)O[C@H]([C@H](C)C[C@@H]2CC[C@@H](O)[C@H](OC)C2)CC(=O)[C@H](C)/C=C(\\C)[C@@H](O)[C@@H](OC)C(=O)[C@H](C)C[C@H](C)/C=C/C=C/C=C/1C [Sirolimus] (10 nM)", "normalised response (%)": 79.1}
{"compound": "CCN(CC)CCOc1ccc(C(=C(Cl)c2ccccc2)c2ccccc2)cc1 [Clomifene] (10 nM)", "normalised response (%)": 101}
{"compound": "CCCCCOC(=O)Nc1nc(=O)n([C@@H]2O[C@H](C)[C@@H](O)[C@H]2O)cc1F [Capecitabine] (10 nM)", "normalised response (%)": 98.7}
{"compound": "CC(C)n1nc(-c2ccc3oc(N)nc3c2)c2c(N)ncnc21 [INK128] (100 nM)", "normalised response (%)": 48.6}
{"compound": "Nc1nc(Cl)nc2c1ncn2[C@@H]1O[C@H](CO)[C@@H](O)[C@@H]1F [Clofarabine] (1000 nM)", "normalised response (%)": 22.9}
{"compound": "CC(C)C[C@H](NC(=O)[C@H](CCc1ccccc1)NC(=O)CN1CCOCC1)C(=O)N[C@@H](Cc1ccccc1)C(=O)N[C@@H](CC(C)C)C(=O)[C@@]1(C)CO1 [Carfilzomib] (0.1 nM)", "normalised response (%)": 105}
{"compound": "CCCCCOC(=O)Nc1nc(=O)n([C@@H]2O[C@H](C)[C@@H](O)[C@H]2O)cc1F [Capecitabine] (1000 nM)", "normalised response (%)": 98.7}
{"compound": "N[C@@H](Cc1ccc(N(CCCl)CCCl)cc1)C(=O)O [Melphalan] (1250 nM)", "normalised response (%)": 9.28}
{"compound": "C[C@]12C=CC(=O)C=C1CC[C@@H]1[C@@H]2C(=O)C[C@@]2(C)[C@H]1CC[C@]2(O)C(=O)CO [Prednisone] (1 nM)", "normalised response (%)": 110}
{"compound": "O=NN(CCCl)C(=O)NC1CCCCC1 [Lomustine] (10 nM)", "normalised response (%)": 95.2}
{"compound": "Cn1nnc2c(C(N)=O)ncn2c1=O [Temozolomide] (1000 nM)", "normalised response (%)": 104}
{"compound": "CCc1cnn2c(NCc3ccc[n+]([O-])c3)cc(N3CCCC[C@H]3CCO)nc12 [Dinaciclib] (100 nM)", "normalised response (%)": 15.8}
{"compound": "CC[C@@H]1C(=O)N(C)c2cnc(Nc3ccc(C(=O)N[C@H]4CC[C@H](N5CCN(CC6CC6)CC5)CC4)cc3OC)nc2N1C(C)C [Volasertib] (100 nM)", "normalised response (%)": 50.1}
